Where a name gives a salt, the structure may show the parent alone.
MEASURE: Ki (µM)
Answer with a number only, understood to be in µM.

Record Cc1cc(OCCCCCC(=N)N)cc(OS(=O)(=O)c2ccccc2Cl)c1 [Example 18, acetic acid salt] has bovine α-chymotrypsin (Bos taurus, UniProt P00766) Ki equal to 6.29

* * *

Structures can show the parent of a compound that is named as a salt.
Reported pKi for target or system UniProt:P00734, by entry.
Keep it numeric: pKi is minus log10 of the concentration in mol/L.

Entry CC(=N)N1CCC(COc2cc(C)cc(OS(=O)(=O)c3cccc(Cl)c3Cl)c2)CC1 [Example 8, hydrochloride] , pKi reported as 5.76

Sure, the documented pKi for Cc1cc(OCCCC(=N)N)cc(OS(=O)(=O)c2ccccc2Cl)c1 [Example 14, hydrochloride] is 6.24

Given item CC(=N)N1CCC(COc2cc(C)cc(OS(=O)(=O)c3cccc(Cl)c3)c2)CC1 [Example 5, hydrochloride] , the value recorded as its pKi is 5.31

According to the records, this molecule CC(=N)N1CCC(COc2cc(C)cc(OS(=O)(=O)c3ccccc3Cl)c2)CC1 [Example 1, hydrochloride] displays pKi of 5.78
